Assay: Mouse pharmacokinetics
Type: in vivo, female CD-1 mice
Details: female, CD-1, mouse, plasma, iv, 11 mg/kg
assay_readout: clearance at 12 h (mL/min/kg)

* COc1cc2nc3n(c(=O)c2cc1Cl)CC[C@H]1[C@H]3CCCN1CC1COC1 (single isomer, unassigned) [trans-57b-ent-2] | 40.8

* * *

Experiment: Mouse plasma stability
Format: in vitro ADME
Conditions: male, CD-1, mouse
assay_readout: half-life

- COc1cc2nc3n(c(=O)c2cc1Cl)CC[C@H]1[C@H]3CCCN1CC1COC1 (single isomer, unassigned) [trans-57b-ent-2]: > 289 min

Data credit: paper PMC11577639
